Values compiled from patent US10004701B2.

- System: S. aureus strain USA300-0114
- test_protocol: AK assay 384-well format, Prestwick library screening
- Type: cell-based, Staphylococcus aureus
- conditions: Staphylococcus aureus, USA300, 3 h; planktonic S. aureus; 50 μM final drug concentration; positive cutoff 3-fold increase; read-out: AK-based Prestwick library screening result, S. aureus (fold increase in extracellular AK activity)
Structures can show the parent of a compound that is named as a salt.
value_kind: fold induction at 50 µM
Keep it simple and answer with nothing but the number.

Consider the worked cases shown below.
Cc1cccc(C)c1NC(=O)C(C)N (centres unmarked) [Tocainide hydrochloride]    1.1
CCOC1O[C@H]([C@@H](COCc2ccccc2)OCc2ccccc2)[C@H](OCc2ccccc2)[C@H]1O (some centres unmarked) [Tribenoside]    0.6
CCCCN(CCCC)CCC(O)c1cc2c(Cl)cc(Cl)cc2c2cc(C(F)(F)F)ccc12 (centres unmarked) [Halofantrine hydrochloride]    1.2
Cc1[nH]c(=O)c(C#N)cc1-c1ccncc1 [Milrinone]    0.7

# ---- query molecule ----
// fold induction at 50 µM lookup, key: O=C(O)/C=C/c1ccc(Cn2ccnc2)cc1 [Ozagrel hydrochloride] 0.5

* * *

We begin with a simple list: items and their reported fold induction at 50 µM.
- Test system: K. pneumoniae
- test_protocol: AK assay 384-well format, Prestwick library screening
- Format: cell-based, Klebsiella pneumoniae
- conditions: Klebsiella pneumoniae, 3 h, 50 μM final drug concentration; planktonic; […]; read-out: AK-based Prestwick Library Screening Results, K. pneumoniae (fold increase in extracellular AK activity)
Where a name gives a salt, the structure may show the parent alone.
Keep it simple and answer with nothing but the number.

CN1C(C)(C)CCCC1(C)C [Pempidine tartrate]    1
c1cncc(C2=NCCC2)c1    0.5
C[C@H]1C(=O)O[C@@H]2CCN3CC=C(COC(=O)[C@](C)(O)[C@]1(C)O)[C@H]23    1
COc1ccc2c(OC)c3ccoc3nc2c1OC    0.5
O=c1ccc2cc(O[C@@H]3O[C@H](CO)[C@@H](O)[C@H](O)[C@H]3O)c(O)cc2o1 [Esculin Hydrate]    0.6
Cc1c(Nc2ncccc2C(=O)O)cccc1C(F)(F)F    0.5

# ---- query compound ----
// fold induction at 50 µM lookup, key: `C=C[C@]12CN(C)[C@@H]3[C@H]4CO[C@H](C[C@H]41)[C@]1(C(=O)Nc4ccccc41)[C@@H]32` 0.7

* * *

We begin with a simple list: items and their reported fold induction at 50 µM.
- System: E. faecium
- test_protocol: AK assay 384-well format, Prestwick library screening
- Format: cell-based, Enterococcus faecium
- conditions: Enterococcus faecium, 3 h, planktonic E. faecium; 50 μM final drug concentration; […]; read-out: AK-based Prestwick library screening result, E. faecium (fold increase in extracellular AK activity)
Where a name gives a salt, the structure may show the parent alone.
Keep it simple and answer with nothing but the number.

Consider the worked cases shown below.
CC(C)(C)NC(=O)[C@@H]1C[C@@H]2CCCC[C@@H]2CN1C[C@@H](O)[C@H](Cc1ccccc1)NC(=O)[C@H](CC(N)=O)NC(=O)c1ccc2ccccc2n1 [Saquinavir mesylate]    1.2
CC(=O)OCC(=O)[C@H]1CC[C@H]2[C@@H]3CC[C@H]4C[C@H](O)CC[C@]4(C)[C@H]3C(=O)C[C@]12C [Alfadolone acetate]    1.1
CN(C)[C@@H]1C(O)=C(C(=O)NCNCCCC[C@H](N)C(=O)O)C(=O)[C@@]2(O)C(O)=C3C(=O)c4c(O)cccc4[C@@](C)(O)[C@H]3C[C@@H]12    1

# ---- query compound ----
// fold induction at 50 µM lookup, key: C[C@]12C[C@H]3S[C@H]3C[C@@H]1CC[C@@H]1[C@@H]2CC[C@]2(C)[C@@H](O)CC[C@@H]12 [Epitiostanol] 1
